pKi, Androgen receptor (Homo sapiens): measured values
In plain terms, pKi is the concentration in mol/L turned into minus its base-10 logarithm.

Quick check: pKi of `CCCCc1ccc(C(=O)N2C[C@@H]3C[C@H]2[C@@H]2C(=O)N(c4ccc(C#N)cc4)C(=O)N32)cc1` ?
7.00

# query: pKi of entry `CC(C)(C)OC(=O)N1C[C@@H]2C[C@H]1[C@H]1C(=O)N(c3ccc(C#N)cc3)C(=O)N21`
6.72

Param item = `O=C1[C@H]2[C@@H]3C[C@@H](CN3C(=O)c3ccccc3)N2C(=O)N1c1ccc([N+](=O)[O-])cc1` ; retrieve measured pKi.
8.00

Please look up its pKi: `N#Cc1ccc(N2C(=O)[C@H]3[C@@H]4C[C@@H](CN4C(=O)Oc4ccc(F)cc4)N3C2=O)c2ccccc12`
7.40

pKi for `CC(C)(C)OC(=O)N1C[C@@H]2C[C@H]1[C@@H]1C(=O)N(c3ccc([N+](=O)[O-])c4ccccc34)C(=O)N21` ?
7.22

May I ask what pKi has been recorded for `N#Cc1ccc(N2C(=O)[C@H]3[C@@H]4C[C@@H](CN4C(=O)Oc4ccc(F)cc4)N3C2=O)cc1C(F)(F)F` ?
8.00

====

Field: pIC50. Provide a value for each of the compounds that follow.
Convention used: pIC50 is expressed as -log10 of the molar concentration.

Identify the measured pIC50 of `CC(C)(C)OC(=O)N1C[C@H]2C[C@@H]1[C@H]1C(=O)N(c3ccc([N+](=O)[O-])cc3)C(=O)N21` for Androgen receptor (Homo sapiens, UniProt P10275).
6.60

Lookup: pIC50 / Androgen receptor (Homo sapiens, UniProt P10275) / `O=C1[C@H]2[C@@H]3C[C@@H](CN3C(=O)Oc3ccc(F)cc3)N2C(=O)N1c1ccc([N+](=O)[O-])c2ccccc12`
6.47

Lookup: pIC50 / Androgen receptor (Homo sapiens, UniProt P10275) / `CC(C)(C)OC(=O)N1C[C@@H]2C[C@H]1[C@]1(C)C(=O)N(c3ccc(C#N)c(C(F)(F)F)c3)C(=O)N21`
6.11

pIC50 of `CC(C)(C)OC(=O)N1C[C@@H]2C[C@H]1[C@H]1C(=O)N(c3ccc(C#N)c(C(F)(F)F)c3)C(=O)N21` on Androgen receptor (Homo sapiens, UniProt P10275)?
6.19

# get_value(readout= pIC50, system= Androgen receptor (Homo sapiens, UniProt P10275)) for `CC(C)(C)OC(=O)N1C[C@@H]2C[C@H]1[C@@H]1C(=O)N(c3ccc(C#N)c(C(F)(F)F)c3)C(=O)N21`
6.11

====

molecular target: Androgen receptor (Homo sapiens); details: lncap
Description: In vitro antagonistic activity against mutant androgen receptor of LNCap cells
Give pIC50 for every item shown.
Remember, pIC50 is on a log scale: it is -log10 of the molar concentration.

I have this molecule here, `N#Cc1ccc(N2C(=O)[C@H]3[C@@H]4C[C@@H](CN4C(=O)Oc4ccc(F)cc4)N3C2=O)c2ccccc12` , and I need its recorded pIC50.
5.73

Any idea what its pIC50 is? The molecule is `O=C1[C@H]2[C@@H]3C[C@@H](CN3C(=O)Oc3ccc(F)cc3)N2C(=O)N1c1ccc([N+](=O)[O-])c2ccccc12`
4.52

Item under review: `CC(C)(C)OC(=O)N1C[C@@H]2C[C@H]1[C@@H]1C(=O)N(c3ccc(C#N)cc3)C(=O)N21` . Reported pIC50?
5.30

Tell me the measured pIC50 of `CC(C)(C)OC(=O)N1C[C@H]2C[C@@H]1[C@H]1C(=O)N(c3ccc([N+](=O)[O-])cc3)C(=O)N21` , please.
5.62

Name the recorded pIC50 for `O=C1[C@H]2[C@@H]3C[C@@H](CN3C(=O)c3ccccc3)N2C(=O)N1c1ccc([N+](=O)[O-])cc1` .
5.60

====

Target: Androgen receptor (Homo sapiens)
Sequence (P10275 whole entry): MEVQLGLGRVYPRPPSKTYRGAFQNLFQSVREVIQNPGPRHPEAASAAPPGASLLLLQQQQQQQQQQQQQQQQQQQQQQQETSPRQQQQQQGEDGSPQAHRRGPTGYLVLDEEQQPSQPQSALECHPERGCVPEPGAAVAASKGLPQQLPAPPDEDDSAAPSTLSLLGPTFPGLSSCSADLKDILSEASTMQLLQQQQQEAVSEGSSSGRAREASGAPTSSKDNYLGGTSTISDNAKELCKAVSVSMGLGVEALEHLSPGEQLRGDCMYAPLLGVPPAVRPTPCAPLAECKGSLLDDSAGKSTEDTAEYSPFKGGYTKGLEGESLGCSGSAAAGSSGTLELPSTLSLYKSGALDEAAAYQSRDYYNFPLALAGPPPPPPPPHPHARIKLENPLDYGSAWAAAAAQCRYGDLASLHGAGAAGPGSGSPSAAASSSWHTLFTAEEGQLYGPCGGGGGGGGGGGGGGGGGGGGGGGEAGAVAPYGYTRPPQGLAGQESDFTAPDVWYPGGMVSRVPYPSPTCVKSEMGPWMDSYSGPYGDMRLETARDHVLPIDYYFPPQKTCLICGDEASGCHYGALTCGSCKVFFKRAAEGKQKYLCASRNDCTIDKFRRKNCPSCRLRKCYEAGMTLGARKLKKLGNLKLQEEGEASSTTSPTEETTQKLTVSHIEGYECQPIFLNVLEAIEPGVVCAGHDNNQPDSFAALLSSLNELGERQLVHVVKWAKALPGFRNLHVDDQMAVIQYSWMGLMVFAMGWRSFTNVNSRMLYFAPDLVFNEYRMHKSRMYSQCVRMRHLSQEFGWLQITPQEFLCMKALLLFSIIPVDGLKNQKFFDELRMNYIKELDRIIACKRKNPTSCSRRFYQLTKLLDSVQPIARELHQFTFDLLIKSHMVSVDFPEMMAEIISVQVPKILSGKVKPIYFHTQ
Give measured IC50 for each item. Keep answers brief.
Express it in nM; write the number only.

# lookup: IC50 of `O=C1[C@@H]2[C@@H]3CC[C@@H](C3)[C@@H]2C(=O)N1c1ccc([N+](=O)[O-])c(C(F)(F)F)c1`
10

Sample `CCCCc1ccc(C(=O)N2C[C@@H]3C[C@H]2[C@@H]2C(=O)N(c4ccc(C#N)cc4)C(=O)N32)cc1` — what was its IC50?
580

# lookup: IC50 of `O=C1[C@H]2[C@H]3CC[C@H](C3)N2C(=O)N1c1ccc([N+](=O)[O-])c2ccccc12`
1300

May I ask what IC50 has been recorded for `N#Cc1ccc(N2C(=O)[C@H]3[C@@H]4C[C@@H](CN4C(=O)Oc4ccc(F)cc4)N3C2=O)c2ccccc12` ?
580

Could you tell me which IC50 is on file for `N#Cc1ccc(N2C(=O)[C@H]3[C@@H]4C[C@@H](CN4C(=O)Oc4ccc(F)cc4)N3C2=O)cc1C(F)(F)F` ?
200

I'd like to know its IC50. The compound in question is `CC(C)(C)OC(=O)N1C[C@@H]2C[C@H]1[C@H]1C(=O)N(c3ccc([N+](=O)[O-])c4ccccc34)C(=O)N21`
1330

Fill in: IC50 of `CC(C)(C)OC(=O)N1C[C@@H]2C[C@H]1[C@@H]1C(=O)N(c3ccc([N+](=O)[O-])c4ccccc34)C(=O)N21` is ___
3320

====

target: Androgen receptor (Homo sapiens); conditions: lncap
I'd be grateful if you could share measured IC50 for these entries.
Form entry: value (µM) — number only.

Please report the recorded IC50 for `CC(C)(C)OC(=O)N1C[C@@H]2C[C@H]1[C@H]1C(=O)N(c3ccc(C#N)cc3)C(=O)N21` .
3.51

Entry `CC(C)(C)OC(=O)N1C[C@@H]2C[C@H]1[C@@H]1C(=O)N(c3ccc([N+](=O)[O-])c4ccccc34)C(=O)N21` has what IC50?
4.43

Reported IC50, molecule `CC(C)(C)OC(=O)N1C[C@@H]2C[C@H]1[C@]1(C)C(=O)N(c3ccc(C#N)c(C(F)(F)F)c3)C(=O)N21` : ____
10.4

====

target: Androgen receptor (Homo sapiens)
pKi: −log10 of the molar value.
Decide using pKi: a value greater than or equal to 7 is condition met, a smaller one is condition not met.

Threshold query (pKi >= 7) on `CC(C)(C)OC(=O)N1C[C@@H]2C[C@H]1[C@H]1C(=O)N(c3ccc(C#N)c(C(F)(F)F)c3)C(=O)N21`
condition not met

Hi, just wondering whether `CC(C)(C)OC(=O)N1C[C@@H]2C[C@H]1[C@@H]1C(=O)N(c3ccc(C#N)c(C(F)(F)F)c3)C(=O)N21` shows pKi of 7 or higher.
condition met

Given the entry `O=C1[C@@H]2[C@@H]3CC[C@@H](C3)[C@@H]2C(=O)N1c1ccc([N+](=O)[O-])c(C(F)(F)F)c1` , answer whether its pKi meets or surpasses 7.
condition met

Entry `O=C1[C@H]2[C@@H]3C[C@@H](CN3C(=O)Oc3ccc(F)cc3)N2C(=O)N1c1ccc([N+](=O)[O-])c2ccccc12` : is its pKi no less than 7?
condition met

Please indicate if the recorded pKi for `CC(C)(C)OC(=O)N1C[C@@H]2C[C@H]1[C@@H]1C(=O)N(c3ccc(C#N)cc3)C(=O)N21` meets or exceeds 7.
condition not met

Given the entry `CC(C)(C)OC(=O)N1C[C@H]2C[C@@H]1[C@H]1C(=O)N(c3ccc([N+](=O)[O-])cc3)C(=O)N21` , answer whether its pKi meets or surpasses 7.
condition not met

Does `O=C1[C@H]2[C@H]3CC[C@H](C3)N2C(=O)N1c1ccc([N+](=O)[O-])c2ccccc12` have a reported pKi of at least 7?
condition met

From: ChEMBL document CHEMBL1138730
